Reference source for all entries: patent US20170052184A1

- target-under-test: T1, HCV Core1-169 recombinant antigen (hepatitis C virus (HCV-1), UniProt P26664 1-169)
- T1 sequence: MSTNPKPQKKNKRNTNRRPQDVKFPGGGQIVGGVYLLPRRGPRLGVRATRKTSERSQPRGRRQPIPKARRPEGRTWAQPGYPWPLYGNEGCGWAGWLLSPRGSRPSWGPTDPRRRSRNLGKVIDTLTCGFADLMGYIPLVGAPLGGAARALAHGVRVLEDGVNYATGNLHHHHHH
- assay-details: sandwich EIA, 25 ng/ml core1-169; capture mAb 208A-110
parameter-measured: OD492 nm (OD492)
The answer is to be given in OD492; state only the numeric part.

Task: Need OD492 nm of HCV 208A-692 monoclonal antibody (antibody, V domains shown) VH: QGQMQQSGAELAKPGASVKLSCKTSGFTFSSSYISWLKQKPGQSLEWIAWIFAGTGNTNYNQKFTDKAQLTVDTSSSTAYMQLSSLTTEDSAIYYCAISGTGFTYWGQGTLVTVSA VL: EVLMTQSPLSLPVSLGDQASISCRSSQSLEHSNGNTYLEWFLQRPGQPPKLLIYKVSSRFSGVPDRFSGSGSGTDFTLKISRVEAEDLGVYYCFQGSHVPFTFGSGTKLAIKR , thanks.
Output: 0.54
